Source: patent US20240317777A1

Give measured pIC50 for each item. Keep answers brief.
biological target: CDK2-CYCLIN E1 (Homo sapiens, UniProt P24941); assay: CDK protein kinase inhibition by ADP-Glo assay, CDK2-CYCLIN E1; assay type: biochemical; settings: ADP-Glo, 1000 μM ATP; Table 31; read-out: CDK2-CYCLINE, IC50
pIC50: −log10 of the molar value.

Consider the following illustrative entries.
INSERT INTO measurements (compound, parameter, result) VALUES
  ('O=C1N[C@H]2C[C@@H](CC(F)(F)c3cc(ccn3)Nc3cc(n[nH]3)[C@H]3CC[C@H](C3)O1)C2 (single isomer, unassigned) [Compound 170]', 'pIC50', '≥ 8.00'),
  ('C[C@H]1CCCC(F)(F)c2cc(ccn2)Nc2cc(n[nH]2)[C@H]2CC[C@H](C2)OC(=O)N1 [Compound 166]', 'pIC50', '≥ 8.00'),
  ('C[C@@H]1NC(=O)O[C@@H]2CC[C@@H](C2)c2cc([nH]n2)Nc2ccnc(c2)COCC1(F)F [compound 164]', 'pIC50', '≥ 8.00');

Shifting focus to the compound that follows.
Exercise: Fill in: pIC50 of C[C@H]1NC(=O)O[C@@H]2CC[C@@H](C2)c2cc([nH]n2)Nc2ccnc(c2)COCC1(F)F [compound 165] is ___
Solution: 7.30 to 8.00
